Test system: Klebsiella pneumoniae PCI-602
Assay Explanation: Antibacterial activity, agar-dilution MIC, organism No. 7
Assay type: cell-based
Experimental Context: Klebsiella pneumoniae, PCI602, read-out: Minimum Inhibitory Concentration
Assay Readout: MIC (µg/mL)
One number for each entry, in µg/mL.

Consider the reported MIC for these compounds:
[C-]#[N+]C12CC3(/C=C/C(=O)Nc4ccc(O)cc4)OC3C1O2 (centres unmarked)
1.56
[C-]#[N+]C12CC3(/C=C/C(=O)Nc4nc[nH]n4)OC3C1O2 (centres unmarked)
200
[C-]#[N+]C12CC3(/C=C/C(=O)Nc4ccncc4)OC3C1O2 (centres unmarked)
3.13

The value of MIC measured for the compound [C-]#[N+]C12CC3(/C=C/C(=O)NCCO)OC3C1O2 (centres unmarked) turned out to be 200

---

Tested on: Proteus morganii IFO 3848
Assay Explanation: Antibacterial activity, agar-dilution MIC, organism No. 18
Format: cell-based
Experimental Context: Morganella morganii, IFO3848; Organism No. 18, bouillon-agar; read-out: Minimum Inhibitory Concentration
Assay Readout: MIC (µg/mL)
Answers are plain numbers, in µg/mL.

[C-]#[N+]C12CC3(/C=C/C(=O)Nc4ccccc4O)OC3C1O2 (stereo not drawn) [compound 58]
1.56

Turning to the following molecule.
The value of MIC measured for the molecule [C-]#[N+]C12CC3(/C=C/C(=O)N[C@@H](CCC(=O)OC)C(=O)OC)OC3C1O2 (stereo partly drawn) [Compound No. 26] turned out to be 100

---

Assign MIC to each entry below.
Tested on: Escherichia coli K12 C600 IAM 1264
Assay Explanation: Antibacterial activity, agar-dilution MIC, organism No. 6
Format: cell-based
Experimental Context: Escherichia coli, IAM1264, read-out: Minimum Inhibitory Concentration
One number for each entry, in µg/mL.

Consider the reported MIC for these compounds:
[C-]#[N+]C12CC3(/C=C/C(=O)Nc4nc[nH]n4)OC3C1O2 (centres unmarked)
100
[C-]#[N+]C12CC3(/C=C/C(=O)Nc4ccncc4)OC3C1O2 (centres unmarked)
50
[C-]#[N+]C12CC3(/C=C/C(=O)Nc4ccc(O)cc4)OC3C1O2 (centres unmarked)
25
[C-]#[N+]C12CC3(/C=C/C(=O)NCCO)OC3C1O2 (centres unmarked)
25

The value of MIC measured for the compound [C-]#[N+]C12CC3(/C=C/C(=O)Nc4ccc(OC)cc4)OC3C1O2 (centres unmarked) turned out to be 3.13

---

Test system: Proteus mirabilis IFO 3849
Assay Explanation: Antibacterial activity, agar-dilution MIC, organism No. 19
Format: cell-based
Experimental Context: Proteus mirabilis, IFO3849; Organism No. 19, bouillon-agar; read-out: Minimum Inhibitory Concentration
Assign MIC to each entry below.

[C-]#[N+]C12CC3(/C=C/C(=O)N(C(=O)NC4CCCCC4)C4CCCCC4)OC3C1O2 (centres unmarked) [Compound No. 25]
> 200 µg/mL
[C-]#[N+]C12CC3(/C=C/C(=O)Nc4ccccc4Cl)OC3C1O2 (centres unmarked) [compound 42]
> 200 µg/mL
[C-]#[N+]C12CC3(/C=C/C(=O)N[C@@H](C(=O)OCc4ccccc4)C(C)C)OC3C1O2 (some centres unmarked) [compound 30]
> 200 µg/mL
[C-]#[N+]C12CC3(/C=C/C(=O)Nc4ccc(I)cc4)OC3C1O2 (centres unmarked) [compound 45]
> 200 µg/mL
[C-]#[N+]C12CC3(/C=C/C(=O)N4CCCC4)OC3C1O2 (centres unmarked) [compound 21]
> 200 µg/mL

Please state MIC for every compound in the list that follows.
1. [C-]#[N+]C12CC3(/C=C/C(=O)Nc4ccc(F)cc4)OC3C1O2 (centres unmarked) [compound 43]
2. [C-]#[N+]C12CC3(/C=C/C(=O)Nc4ccccc4)OC3C1O2 (centres unmarked) [Compound No. 36]
3. [C-]#[N+]C12CC3(/C=C/C(=O)Nc4ccccc4O)OC3C1O2 (centres unmarked) [compound 58]
4. [C-]#[N+]C12CC3(/C=C/C(=O)OCC(=O)c4ccc(C)cc4)OC3C1O2 (centres unmarked) [compound 6]
5. [C-]#[N+]C12CC3(/C=C/C(=O)Nc4ccc(Cl)cc4)OC3C1O2 (centres unmarked) [compound 40]

Reply:
12.5 µg/mL
12.5 µg/mL
12.5 µg/mL
> 100 µg/mL
> 200 µg/mL

Please state MIC for every compound in the list that follows.
1. [C-]#[N+]C12CC3(/C=C/C(N)=O)OC3C1O2 (centres unmarked) [Compound No. 19]
2. [C-]#[N+]C12CC3(/C=C/C(=O)Nc4ccc5c(c4)CCC5)OC3C1O2 (centres unmarked) [compound 75]
3. [C-]#[N+]C12CC3(/C=C/C(=O)N[C@@H](CC(=O)OC)C(=O)OC)OC3C1O2 (some centres unmarked) [Compound No. 27]
4. [C-]#[N+]C12CC3(/C=C/C(=O)OCC(=O)c4cccc(OC)c4)OC3C1O2 (centres unmarked) [compound 7]
5. [C-]#[N+]C12CC3(/C=C/C(=O)Nc4cccc(C)c4)OC3C1O2 (centres unmarked) [compound 38]
6. [C-]#[N+]C12CC3(/C=C/C(=O)N4CCC[C@H]4C(=O)OCc4ccccc4)OC3C1O2 (some centres unmarked) [compound 32]
7. [C-]#[N+]C12CC3(/C=C/C(=O)OCc4ccccc4)OC3C1O2 (stereo not drawn) [Compound No. 10, benzyl β-substituted acrylate]

Reply:
1: 50 µg/mL; 2: > 200 µg/mL; 3: > 200 µg/mL; 4: 12.5 µg/mL; 5: > 200 µg/mL; 6: > 200 µg/mL; 7: 3.13 µg/mL
